- TARGET SYSTEM: human GPR52 (Homo sapiens, UniProt Q9Y2T5)
- Construct: expressed in transfected cells; host or cells: HEKf suspension cells, BacMam (modified baculovirus) transduction
- Sequence (Q9Y2T5 whole entry): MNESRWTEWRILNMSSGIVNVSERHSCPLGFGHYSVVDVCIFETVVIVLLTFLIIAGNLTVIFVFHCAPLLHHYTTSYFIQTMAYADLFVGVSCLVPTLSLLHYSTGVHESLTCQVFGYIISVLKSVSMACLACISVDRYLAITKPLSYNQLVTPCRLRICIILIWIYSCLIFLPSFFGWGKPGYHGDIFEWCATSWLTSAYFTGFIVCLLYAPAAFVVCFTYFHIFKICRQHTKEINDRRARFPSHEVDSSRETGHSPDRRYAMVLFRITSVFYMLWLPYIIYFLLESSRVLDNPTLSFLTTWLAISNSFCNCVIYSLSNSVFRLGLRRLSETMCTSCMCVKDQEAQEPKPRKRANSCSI
- METHOD DESCRIPTION: GPR52 Agonist Functional cAMP Assay
- Assay type: cell-based
- TEST SETTINGS: HEKf cells infected with human GPR52 BacMam, cAMP HTRF, 30 min 37° C.; read-out: pEC50 average (converted)
Binary call on EC50 with cut-off 10 nM: strictly below means Y, and equality or higher means N.

# MOLECULE, TARGET SYSTEM, CLASS
measured = [
    ("Cc1nn(-c2ccnc(Cc3cc(F)cc(C(F)(F)F)c3)c2)c(CO)c1C(=O)NCCO [Intermediate 11]", "human GPR52 (Homo sapiens, UniProt Q9Y2T5)", "N"),
    ("Cc1nn(-c2ccnc(Cc3cc(F)cc(C(F)(F)F)c3)c2)c(CO)c1C(N)=O [Intermediate 10]", "human GPR52 (Homo sapiens, UniProt Q9Y2T5)", "N"),
    ("Cc1nn(-c2cc(Cc3cc(F)cc(C(F)(F)F)c3)ccn2)c(CO)c1C(N)=O [Intermediate 6]", "human GPR52 (Homo sapiens, UniProt Q9Y2T5)", "Y"),
    ("Cc1nn(-c2cc(Cc3cc(F)cc(C(F)F)c3)ccn2)c(CO)c1C(N)=O [Intermediate 16]", "human GPR52 (Homo sapiens, UniProt Q9Y2T5)", "Y"),
    ("Cc1nn(-c2cc(Cc3cc(F)cc(C(F)(F)F)c3)ccn2)c(CO)c1C(=O)NCCO [Intermediate 7]", "human GPR52 (Homo sapiens, UniProt Q9Y2T5)", "Y"),
]

====

- METHOD DESCRIPTION: Thermodynamic solubility in biorelevant media
- Type: physicochemical
- TEST SETTINGS: SGF without enzyme, simulated gastric fluid, thermodynamic from solid, SGF, pH 1.2, 25° C.

# COMPOUND SMILES, solubility at 4 h [µM]
rows = [
    ("Cc1nn(-c2cc(Cc3cc(F)cc(C(F)(F)F)c3)ccn2)c(COP(=O)(O)O)c1C(N)=O", 13.1),
]

====

- METHOD DESCRIPTION: Rat IV brain penetration (Kp,uu)
- Format: in vivo, Sprague-Dawley rats
- TEST SETTINGS: male, Sprague-Dawley, brain and plasma, IV 1 mg/kg, n = 3, unbound brain-to-plasma ratio
ATTRIBUTE MEASURED: Kp uu at 10 min

# MOLECULE, MEASUREMENT
rows = [
    ("Cc1nn(-c2cc(Cc3cc(F)cc(C(F)(F)F)c3)ccn2)c(CO)c1C(N)=O [Intermediate 6]", 0.42),
]

====

- METHOD DESCRIPTION: Rat IV pharmacokinetics
- Format: in vivo, Sprague-Dawley rats
- TEST SETTINGS: male, Sprague-Dawley, plasma, IV 1 mg/kg, n = 3

# COMPOUND, clearance / mL/min/kg
measured = [
    ("Cc1nn(-c2cc(Cc3cc(F)cc(C(F)(F)F)c3)ccn2)c(CO)c1C(N)=O [Intermediate 6]", 8.8),
]
